- System: X (Homo sapiens, UniProt P28074)
Can you tell me IC50 for the items I'm about to list?

Before answering, review these 2 worked examples.
CC(C)C[C@H](NC(=O)[C@@H]1COCCCCCC(=O)NCC(=O)N2CCC[C@H]2C(=O)N1)C(=O)[C@@]1(C)CO1 :: > 10 µM
CC(C)C[C@H](NC(=O)[C@@H]1Cc2ccc(cc2)OCCCCCCC(=O)N2CCC[C@H]2C(=O)N1)C(=O)[C@@]1(C)CO1 :: > 10 µM

Each compound below has a reported value. Please supply its IC50.
1. CC(C)C[C@H](NC(=O)[C@@H]1COCCCCCC(=O)N2CCC[C@@]2(C)C(=O)N1)C(=O)[C@@]1(C)CO1
2. CC(C)C[C@H](NC(=O)[C@@H]1COCCCCCC(=O)N2CC[C@H]2C(=O)N1)C(=O)[C@@]1(C)CO1
3. CC(C)C[C@H](NC(=O)[C@@H]1COCCCCCC(=O)N2CCCC[C@H]2C(=O)N1)C(=O)[C@@]1(C)CO1

OUT:
1. > 10 µM
2. > 10 µM
3. > 10 µM

Each compound below has a reported value. Please supply its IC50.
1. CC(C)C[C@H](NC(=O)[C@@H]1COCCCCCCC(=O)NCC(=O)N2CCC[C@H]2C(=O)N1)C(=O)[C@@]1(C)CO1
2. CC(C)C[C@H](NC(=O)[C@@H]1COCCCCCC(=O)N2C[C@H](F)C[C@H]2C(=O)N1)C(=O)[C@@]1(C)CO1

OUT:
["> 10 µM", "> 10 µM"]

Each compound below has a reported value. Please supply its IC50.
1. CC(C)C[C@H](NC(=O)[C@@H]1COCCCCCC(=O)N2CC(F)(F)C[C@H]2C(=O)N1)C(=O)[C@@]1(C)CO1
2. C[C@]1(C(=O)[C@H](Cc2ccccc2)NC(=O)[C@@H]2COCCCCCC(=O)N3CCC[C@H]3C(=O)N2)CO1

OUT:
1. > 10 µM
2. > 10 µM
